The reported measurements were obtained from ChEMBL document CHEMBL4177552.

# target-or-test-system: Nitric oxide synthase 3 (Bos taurus)
# assay-notes: Substrate activity at recombinant bovine eNOS assessed as enzyme mediated nitrite production after 40 mins by Griess reagent base LDH assay
Where a SMILES comes first, the peptide text is derived from it.
metric: Activity (µM)
Quick note: give the figure in µM, leave out the unit.

The examples below pair each entry with its known result.
N=C(N)NCCC[C@H](N)C(=O)Nc1ccncc1 = 22
CN(Cc1ccncc1)C(=O)[C@@H](N)CCCNC(=N)N = 21
N/C(=N\O)NCCCCC(=O)NCc1ccncc1 = 29
CN(Cc1cccnc1)C(=O)[C@@H](N)CCCNC(=N)N = 23
N=C(N)NCCC[C@H](N)C(=O)NCc1ccncc1 = 48

GET /values?readout=Activity&system=Nitric oxide synthase 3 (Bos taurus)&item= N=C(N)NCCC[C@H](N)C(=O)NCc1cccnc1
22

Given the entry N/C(=N\O)NCCC[C@H](N)C(=O)NCc1ccncc1 , what Activity was observed with Nitric oxide synthase 3 (Bos taurus)?
26

Report Activity for CC(=O)N[C@@H](CCCN/C(N)=N/O)C(=O)NCc1ccncc1 tested on Nitric oxide synthase 3 (Bos taurus).
27

Form: Entry = CC(NC(=O)[C@@H](N)CCCNC(=N)N)c1ccncc1 (some centres not stated) | System = Nitric oxide synthase 3 (Bos taurus) | Activity = ____
20

Tell me reported Activity for N=C(N)NCCC[C@H](N)C(=O)N[C@@H](Cc1cccnc1)C(=O)O (HELM PEPTIDE1{R.[O=C(O)[C@H](Cc1cccnc1)N[*:1]]}$$$$V2.0) , tested with Nitric oxide synthase 3 (Bos taurus).
38

So what Activity did N=C(N)NCCC[C@H](N)C(=O)O get with Nitric oxide synthase 3 (Bos taurus)?
25

Report Activity for CC(NC(=O)[C@@H](N)CCCNC(=N)N)c1cccnc1 (some centres not stated) tested on Nitric oxide synthase 3 (Bos taurus).
26
